# Octet response per entry
assay-target: T1, LA peptide (Octet assay of PS557 variants)
T1 construct: Peptide coated on the Octet sensor
assay-protocol: Octet (BLI), peptide on sensor, response after 200 s association
observable: Octet response (nm)

| binder | number |
| --- | --- |
| PS962 (designed binder, Variant of PS557) MPTAASATESAIEDTPAPARPEVDGRTKPKRQPRYHVVLWDDDDHTYQYVVVMLRSLFGHPYARGYRLAKEMDTQGRVIVLTTTREHAELKRDQIHAFGRDRLLARSKGSMKASIEAEE | 10.5 |
| PS963 (designed binder, Variant of PS557) MPTAASATESAIEDTPAPARPEVDGRTKPKRQPRYHVVLWDDDDHTYQYVVVMLRSLFGHPPARGYRLAKEMDTQGRVIVLTTTREHAELKRDQIHAFGRDRLLARSKGSMKASIEAEE | 9.65 |

Cited source: patent US20240272170A1
